Recorded values, source PubChem BioAssay (NCI).

Provide the recorded growth for the entries that follow.
test system: SN12C renal; experiment: NCI-60 one-dose screen, 48 h (100 = growth as untreated, 0 = no growth, -100 = all killed); settings: 10 µM unless noted
About 83,000 compounds went through this panel and 20% of them were active in at least one assay; those are over-represented in the sample as a whole.
Use % as the unit, but write only the number.

Any idea what growth was measured for CC(C)NCC(O)COc1ccc(CCOCC2CC2)cc1 (stereo not given) ?
96.9

Look at this compound and give its reported growth. C[C@@H](Oc1cc(-c2cnn(C3CC4(CCNCC4)C3)c2)cnc1N)c1c(F)ccc(Cl)c1Cl
22

Which growth reading was recorded for the compound CCC(C)Oc1cc(/C=N/NC(=O)c2cnn3c2NC(c2ccccc2)C3)ccc1OC (stereo not given) ?
47

Endpoint output: growth of Cc1nc(NC(=O)COc2cccc(/C=C3\COc4ccccc4C3=O)c2)sc1C . Value?
-46.1

Recorded growth for CCOC(=O)C(CC(c1ccccc1)N1CCCCC1)[N+](=O)[O-] (stereo not given) , please?
76.9

---

test system: SNB-19 CNS; assay: NCI-60 one-dose screen, 48 h; conditions: 10 µM unless noted
Compounds without any hit were thinned out: in the full panel of roughly 83,000, 20% have a hit. Activity calls are given as the source filed them. The calls were made as follows: active = growth percent below 10; inactive = the rest.
In this exercise, the only acceptable responses are 1.0 = active, 0.0 = inactive

// param item: COc1cc(C2=NN(c3ccc(S(N)(=O)=O)cc3)C(c3ccc(Cl)cc3)C2)cc(OC)c1OC (configuration not stated) ; yields the recorded call
0.0

Per the assay record, what outcome was assigned to Cc1ccc(C(=O)O[C@H](C(=O)O)[C@H](OC(=O)c2ccc(C)cc2)C(=O)O)cc1 ?
0.0

Per the records of this test, what outcome belongs to O=c1c2c(=NCCN3CCCC3)cc3c(=O)n(CCCN4CCOCC4)c(=O)c4ccc(c(O)n1CCCN1CCOCC1)c2c4-3 ?
1.0

Hi, do you know how COc1ccc(OC)c(/C=C2\Oc3cc(O)ccc3C2=O)c1 came out in this test?
0.0

What is the recorded call for this molecule in the test? Cc1ccc2c(c1)c(Sc1ccc(C(=O)NO)cc1)c1n2CN(C)CC1
0.0

Please share the test call associated with COC1(OC)C2(Cl)C=C(c3ccccc3)C1(Cl)C(Cl)=C2Cl (configuration not stated) .
0.0

Give the logged outcome of this assay for the following molecule: CC(=O)c1cc(C)c(OC(=O)c2ccccc2)c(C)c1
0.0

Hi, sorry to bother you, what did the test record for Cc1cc(NS(=O)(=O)c2ccc(NC(=O)COc3ccc(-c4cc5ccccc5[nH]4)cc3)cc2)no1 ?
0.0

Record request — test call for COc1ccc(S(=O)(=O)ON=C2C=C(C)C(=O)C(C)=C2)cc1
0.0

Returns: the outcome recorded for FC(F)(F)c1cc(CNc2ncc(Br)c(Cl)n2)cc(C(F)(F)F)c1 in this assay.
0.0

Assay result, entry OC[C@@H](O)[C@@H](O)CO — outcome?
0.0

Query: recorded result category for COc1ccc(C2SC(C)C(=O)N2CCc2cccs2)cc1OC (configuration not stated) in this test
0.0

How was CC1(C)CC(=O)C2=C(C1)Nc1cc3c(cc1C2c1ccc(F)cc1)OCO3 (configuration not stated) classified in this test?
0.0

For N#Cc1c(O)c2c(c(O)c1C#N)C(=O)c1ccccc1C2=O , which call appears in the assay record?
0.0

Would you mind telling me which call this test gave COc1cc(C(=O)N(C(C)C)C2CCCCC2)cc(OC)c1OC ?
0.0

Given CCCCNNC(=O)c1ccc(Br)cc1 , state the outcome it received in this test.
0.0

Short answer needed: outcome of this test for Cc1cc(Cl)c2c(Cl)ccc(Cl)c2n1 ?
0.0

Assay result, entry Cc1nc2cc(Nc3nc(N4CCCCC4)nc(N4CCOCC4)n3)ccc2n1Cc1ccccc1 — outcome?
0.0

Tell me the assay call for COc1cccc(C2C3=C(COC3=O)N(CCO)c3cc4c(cc32)CCC4)c1 (configuration not stated) please.
0.0

Name the outcome recorded for CCOC(=O)c1c(-c2cc(OC)c(OC)c(OC)c2)csc1N in the assay.
0.0

What call does the record list for Cc1ccc(C2SCC(=O)N2NC(=O)c2[nH]c3ccc(F)cc3c2-c2ccccc2)cc1 (configuration not stated) ?
0.0

What is the recorded call for this molecule in the test? O=[N+]([O-])c1ccc2nc(N/N=C/c3ccc(O)cc3)sc2c1
0.0

Lab log entry: CCCCCCCCCCCCCCNc1nc(CO)ncc1-c1ccc(C(F)(F)F)cc1 — outcome as called in the assay?
0.0

What classification did CCN(CC)c1ccc(/C=C(\C#N)c2cc3ccccc3[nH]2)cc1 end up with in this test?
0.0

Please indicate how the test categorized CCN(c1ccc(C(=O)N2CCN(c3ccccc3)CC2)cc1)S(C)(=O)=O .
0.0

Fill in: this test's call for CC(=O)Nc1ccc(Sc2ccc([N+](=O)[O-])o2)cc1 is ___
0.0

GET /call?item= Cc1nc2cc(Nc3nc(Cl)nc(Nc4ccc(F)cc4)n3)ccc2n1Cc1ccccc1 returns the recorded outcome of this test.
0.0

Short answer needed: outcome of this test for O=C(CCc1nnc2sc(-c3ccccc3)nn12)c1nc2ccccc2[nH]1 ?
0.0

Call for entry COc1cc(-c2ccc3cc(OC)c(OC)c(OC)c3c2)cc(OC)c1OC :
0.0

Write down the call the test reported for this molecule. Item: Nc1cc2[nH]c(=O)c3ccccc3c2cc1Br
0.0

Lab log entry: O=S(=O)(/N=C1C=C/C(=N\S(=O)(=O)c2ccccc2)c2ccccc2\1)c1ccccc1 — outcome as called in the assay?
0.0

Check the results log: what was the call for COc1cccc(Nc2nc(NCCO)c3ccccc3n2)c1 ?
0.0

What was the test verdict on CCC12CCC3c4ccc(O)cc4CCC3C1CC(O)C2O (configuration not stated) ?
0.0

Entry COc1cc(/C=C2\C(=O)Nc3ccccc32)cc(OC)c1O : call = ?
0.0

Name the outcome recorded for Cc1cc(O)cc2c1[C@H]1CC[C@]3(C)[C@@H](O)CC[C@H]3[C@@H]1C=C2 in the assay.
0.0

# lookup: test call for O=C1NC(=S)S/C1=C\c1cccc([N+](=O)[O-])c1
0.0

Which result was noted for this molecule in the test: CCCN1CCN(c2ccc3nc(-c4ccc5nc(-c6ccc(C(F)(F)F)cc6)[nH]c5c4)[nH]c3c2)CC1
1.0

Call for entry COc1cc(CNCCN2C(=O)c3ccc4c5c(ccc(c35)C2=O)C(=O)N(CCNCc2cc(OC)c(OC)c(OC)c2)C4=O)cc(OC)c1OC :
1.0

How was COC(=O)c1c2c(c(C)[n+]([O-])c1C)C(=O)C=C(NCc1ccc(F)cc1)C2=O classified in this test?
1.0

Assay outcome for COC(=O)[C@H]1CCCN1C(=O)[C@H]1CCCN1C(=O)[C@@H](Cc1c[nH]c2ccccc12)NC(=S)Nc1cc(C(F)(F)F)cc(C(F)(F)F)c1 : what was it?
0.0

Just curious, what result did C=C(C)CCCC(C)CC#N (configuration not stated) get here?
0.0

For Cc1ccc(S(=O)(=O)N2CCc3ccc(O)c4c3C2Cc2cc(Cl)ccc2-4)cc1 (configuration not stated) , what call appears in the results of this test?
0.0

---

test system: HCT-116 colon; experiment: NCI-60 one-dose screen, 48 h; settings: 10 µM unless noted
About 83,000 compounds went through this panel and 20% of them were active in at least one assay; those are over-represented in the sample as a whole. Active and inactive are the calls of the source. The calls were made as follows: active = growth percent below 10; inactive = the rest.
Please answer using one outcome listed in active, inactive

Record lookup: outcome of this test for Cc1oc2c(c1C(=O)N1CC[C@@H](N)C1)C(=O)c1c(c(O)c3ccccc3c1O)C2=O ?
active

Answer briefly: the call reported for O=C(N/N=C/c1ccc(F)cc1)c1[nH]c2ccc(I)cc2c1-c1ccccc1 in this assay.
inactive

Status in this test for Cc1nc(NN)c([N+](=O)[O-])c(NN)n1 ?
inactive

Which outcome was assigned to c1ccc2c(c1)oc1cc3c(cc12)nnc1cccn13 in this test?
inactive

// outcome(item) with item = O=C1C(Br)=C(c2ccccc2)C(=O)C(Br)=C1c1ccccc1
inactive

Please indicate how the test categorized COc1ccc(OC)c(C2C(C#N)=C(N)Oc3cc(O)ccc32)c1 (stereo unspecified) .
inactive

Could you please tell me the result logged for COc1ccc(NS(=O)(=O)c2ccc(-c3cnc(C4CC4)o3)cc2)cc1 in this assay?
inactive

Given COC(=O)/C=C1/CCC2C3CCC4=CC(=O)C(Br)CC4(C)C3C(=O)CC12C (stereo unspecified) , state the outcome it received in this test.
inactive

Can you look up the reported call for COc1ccc(Cn2c(Br)c3c(c2-c2cc(OC)c(OC)c(OC)c2)CCc2sc(N)nc2-3)cc1 for me?
active

Tell me the recorded outcome of this test for COc1cc(C(=O)N(C(C)C)C2CCCCC2)cc(OC)c1OC .
inactive

What classification did COc1cccc(C2C3=C(COC3=O)N(CCO)c3cc4c(cc32)CCC4)c1 (stereo unspecified) end up with in this test?
active

How did this test come out for COC(=O)c1ccc(C(=O)Nc2ccccc2N)cc1 ?
inactive

Returns: the outcome recorded for Cc1nc2cc(Nc3nc(NCCO)nc(Nc4ccc(F)cc4)n3)ccc2n1Cc1ccccc1 in this assay.
inactive

Would you mind telling me which call this test gave O=C(O)C[C@H](O)C[C@H](O)/C=C/c1c(C2CC2)nc2ccccc2c1-c1ccc(F)cc1 ?
inactive

Hi, do you know how O=C(N/N=C/c1ccc(OC(F)F)c(OC2CCCC2)c1)c1cnn2c1NC(c1ccccc1)C2 (stereo unspecified) came out in this test?
inactive

In this assay, the call recorded for CCOC(=O)c1c(Cl)c2c(n1Cc1cc(OC)cc(OC)c1)-c1oncc1CCC2 was what?
inactive

Identify the outcome logged in this assay for the molecule shown: Cc1cc(C)c(S(=O)O)c(C)c1
inactive

For Cn1c(=O)c2c(-c3ccccc3F)n(-c3ccc4c(c3)OCO4)cc2n(C)c1=O , which call appears in the assay record?
inactive

State the result this test recorded for CCOC(=O)C1=C(C)N2C(=NC3=C(CCCC/C3=C\c3ccccc3)C2c2ccccc2)S1 (stereo unspecified) .
inactive

Which outcome was assigned to Cc1nc2cc(Nc3nc(Nc4ccc(F)cc4)nc(-c4ccc(Cl)cc4)n3)ccc2n1Cc1ccccc1 in this test?
inactive

Could you kindly confirm the outcome this assay logged for Clc1ccccc1Nc1ccc2nnc(-c3ccncc3)n2n1 ?
inactive
